Provide the recorded Percent Lepidopteran Damage to Romaine Lettuce 48 hr for the entries that follow.
Tested on: lepidopteran larvae: cabbage loopers (Trichoplusia ni) and beet armyworms (Spodoptera exigua)
Format: in vivo
Particulars: leaf discs; 48 hr; insecticide + buffered amine oxide system CO3, 1218, 200:1; PPM: Chlorantranilopril 60, Acephate 70, Methoxyfenozide 100, Spinosad 30, Permethrin 10, Indoxacarb 50
Report only the number, with the unit % understood.

Please fill in: Percent Lepidopteran Damage to Romaine Lettuce 48 hr reported for COP(=O)(NC(C)=O)SC (centres unmarked) [Acephate] = 50.5

Please fill in: Percent Lepidopteran Damage to Romaine Lettuce 48 hr reported for CNC(=O)c1cc(Cl)cc(C)c1NC(=O)c1cc(Br)nn1-c1ncccc1Cl = 2.0

Please fill in: Percent Lepidopteran Damage to Romaine Lettuce 48 hr reported for CC1(C)C(C=C(Cl)Cl)C1C(=O)OCc1cccc(Oc2ccccc2)c1 (centres unmarked) = 4.5

Please fill in: Percent Lepidopteran Damage to Romaine Lettuce 48 hr reported for COC(=O)N(C(=O)N1CO[C@@]2(C(=O)OC)Cc3cc(Cl)ccc3C2=N1)c1ccc(OC(F)(F)F)cc1 = 50.5

Please fill in: Percent Lepidopteran Damage to Romaine Lettuce 48 hr reported for COc1cccc(C(=O)NN(C(=O)c2cc(C)cc(C)c2)C(C)(C)C)c1C [Methoxyfenozide] = 67.0
